test target: CepR (Burkholderia cenocepacia, UniProt B4EMD0)
Sequence (B4EMD0 1-239): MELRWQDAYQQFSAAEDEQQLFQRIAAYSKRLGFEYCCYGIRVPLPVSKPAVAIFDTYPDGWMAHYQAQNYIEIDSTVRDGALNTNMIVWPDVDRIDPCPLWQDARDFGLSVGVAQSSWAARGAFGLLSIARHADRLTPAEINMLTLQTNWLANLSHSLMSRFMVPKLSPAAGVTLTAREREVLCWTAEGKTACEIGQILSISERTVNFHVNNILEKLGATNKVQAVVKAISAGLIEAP
assay summary: CepR antagonism in E. coli β-galactosidase reporter (Ec-reporter), competition against C8-AHL
Assay type: cell-based, B. cenocepacia
cond: Table S3, Ec-reporter; screening conc. 100 μM; against 10 nM C8-AHL
Entries and their Inh% (100-Act%)
measured parameter: Inh% (100-Act%)

[[record]]
compound = "CCCCCCCCCC(=O)CC(=O)NC1CCCCC1=O (stereo not shown) [Control 15, reference compound]"
test_target = "CepR (Burkholderia cenocepacia, UniProt B4EMD0)"
observed = 29

[[record]]
compound = "O=C(Cc1ccccc1)N[C@H]1CCOC1=O [Control 5, reference compound]"
test_target = "CepR (Burkholderia cenocepacia, UniProt B4EMD0)"
observed = 11

[[record]]
compound = "O=C(COc1ccccc1)N[C@H]1CCOC1=O"
test_target = "CepR (Burkholderia cenocepacia, UniProt B4EMD0)"
observed = -30

[[record]]
compound = "O=C(N[C@H]1CCOC1=O)c1cnn(-c2ccccc2)c1C(F)(F)F"
test_target = "CepR (Burkholderia cenocepacia, UniProt B4EMD0)"
observed = 0.0

[[record]]
compound = "CCCCCCCCCCCCCC(=O)N[C@H]1CCOC1=O [Compound C14-AHL, tetradecanoyl L-homoserine lactone, reference compound]"
test_target = "CepR (Burkholderia cenocepacia, UniProt B4EMD0)"
observed = -10

[[record]]
compound = "O=C(Cc1ccc(Cl)c(Cl)c1)N[C@H]1CCOC1=O"
test_target = "CepR (Burkholderia cenocepacia, UniProt B4EMD0)"
observed = 59

[[record]]
compound = "CCCCCC(=O)CC(=O)N[C@H]1CCOC1=O [3’O-C8-AHL, reference compound]"
test_target = "CepR (Burkholderia cenocepacia, UniProt B4EMD0)"
observed = 3.0

[[record]]
compound = "CCCCCCCCCC(=O)N[C@H]1CCOC1=O [Compound C10-AHL, decanoyl L-homoserine lactone, reference compound]"
test_target = "CepR (Burkholderia cenocepacia, UniProt B4EMD0)"
observed = -30

[[record]]
compound = "CCOc1ccc(C(=O)N[C@H]2CCOC2=O)cc1"
test_target = "CepR (Burkholderia cenocepacia, UniProt B4EMD0)"
observed = -20

[[record]]
compound = "[N-]=[N+]=Nc1ccc(CC(=O)N[C@H]2CCOC2=O)cc1"
test_target = "CepR (Burkholderia cenocepacia, UniProt B4EMD0)"
observed = 26

[[record]]
compound = "CCCCCCCCCCCC(=O)N[C@H]1CCOC1=O [Compound C12-AHL, Dodecanoyl L-homoserine lactone, reference compound]"
test_target = "CepR (Burkholderia cenocepacia, UniProt B4EMD0)"
observed = -30

[[record]]
compound = "O=C(CCc1ccc2c(c1)OCO2)N[C@H]1CCOC1=O"
test_target = "CepR (Burkholderia cenocepacia, UniProt B4EMD0)"
observed = -40

[[record]]
compound = "O=C(Cc1ccc(F)cc1)N[C@H]1CCOC1=O"
test_target = "CepR (Burkholderia cenocepacia, UniProt B4EMD0)"
observed = 4.0

[[record]]
compound = "O=C(Cc1ccccc1[N+](=O)[O-])N[C@H]1CCOC1=O"
test_target = "CepR (Burkholderia cenocepacia, UniProt B4EMD0)"
observed = 79

[[record]]
compound = "O=C(Cc1ccc(O)cc1)N[C@H]1CCOC1=O"
test_target = "CepR (Burkholderia cenocepacia, UniProt B4EMD0)"
observed = -10

[[record]]
compound = "O=C(CCc1cccc([N+](=O)[O-])c1)N[C@H]1CCOC1=O"
test_target = "CepR (Burkholderia cenocepacia, UniProt B4EMD0)"
observed = -10

[[record]]
compound = "O=C(Cc1ccccc1Br)N[C@H]1CCOC1=O"
test_target = "CepR (Burkholderia cenocepacia, UniProt B4EMD0)"
observed = 52

[[record]]
compound = "O=C(CCc1ccc(Br)cc1)N[C@H]1CCOC1=O"
test_target = "CepR (Burkholderia cenocepacia, UniProt B4EMD0)"
observed = -50

[[record]]
compound = "O=C(Cc1ccc(SC(F)(F)F)cc1)N[C@H]1CCOC1=O"
test_target = "CepR (Burkholderia cenocepacia, UniProt B4EMD0)"
observed = 0.0

[[record]]
compound = "O=C(COc1ccc(F)cc1)N[C@H]1CCOC1=O"
test_target = "CepR (Burkholderia cenocepacia, UniProt B4EMD0)"
observed = 22

[[record]]
compound = "O=C(N[C@H]1CCOC1=O)c1ccc2c(c1)OCO2"
test_target = "CepR (Burkholderia cenocepacia, UniProt B4EMD0)"
observed = 5.0

[[record]]
compound = "CCCCCOc1ccc(C(=O)N[C@H]2CCOC2=O)cc1"
test_target = "CepR (Burkholderia cenocepacia, UniProt B4EMD0)"
observed = -10

